# TESTED_SYSTEM: T1, BoNT/F1 (proteolytic BoNT/F) (Clostridium botulinum, UniProt A7GBG3 1-1278)
# T1 sequence: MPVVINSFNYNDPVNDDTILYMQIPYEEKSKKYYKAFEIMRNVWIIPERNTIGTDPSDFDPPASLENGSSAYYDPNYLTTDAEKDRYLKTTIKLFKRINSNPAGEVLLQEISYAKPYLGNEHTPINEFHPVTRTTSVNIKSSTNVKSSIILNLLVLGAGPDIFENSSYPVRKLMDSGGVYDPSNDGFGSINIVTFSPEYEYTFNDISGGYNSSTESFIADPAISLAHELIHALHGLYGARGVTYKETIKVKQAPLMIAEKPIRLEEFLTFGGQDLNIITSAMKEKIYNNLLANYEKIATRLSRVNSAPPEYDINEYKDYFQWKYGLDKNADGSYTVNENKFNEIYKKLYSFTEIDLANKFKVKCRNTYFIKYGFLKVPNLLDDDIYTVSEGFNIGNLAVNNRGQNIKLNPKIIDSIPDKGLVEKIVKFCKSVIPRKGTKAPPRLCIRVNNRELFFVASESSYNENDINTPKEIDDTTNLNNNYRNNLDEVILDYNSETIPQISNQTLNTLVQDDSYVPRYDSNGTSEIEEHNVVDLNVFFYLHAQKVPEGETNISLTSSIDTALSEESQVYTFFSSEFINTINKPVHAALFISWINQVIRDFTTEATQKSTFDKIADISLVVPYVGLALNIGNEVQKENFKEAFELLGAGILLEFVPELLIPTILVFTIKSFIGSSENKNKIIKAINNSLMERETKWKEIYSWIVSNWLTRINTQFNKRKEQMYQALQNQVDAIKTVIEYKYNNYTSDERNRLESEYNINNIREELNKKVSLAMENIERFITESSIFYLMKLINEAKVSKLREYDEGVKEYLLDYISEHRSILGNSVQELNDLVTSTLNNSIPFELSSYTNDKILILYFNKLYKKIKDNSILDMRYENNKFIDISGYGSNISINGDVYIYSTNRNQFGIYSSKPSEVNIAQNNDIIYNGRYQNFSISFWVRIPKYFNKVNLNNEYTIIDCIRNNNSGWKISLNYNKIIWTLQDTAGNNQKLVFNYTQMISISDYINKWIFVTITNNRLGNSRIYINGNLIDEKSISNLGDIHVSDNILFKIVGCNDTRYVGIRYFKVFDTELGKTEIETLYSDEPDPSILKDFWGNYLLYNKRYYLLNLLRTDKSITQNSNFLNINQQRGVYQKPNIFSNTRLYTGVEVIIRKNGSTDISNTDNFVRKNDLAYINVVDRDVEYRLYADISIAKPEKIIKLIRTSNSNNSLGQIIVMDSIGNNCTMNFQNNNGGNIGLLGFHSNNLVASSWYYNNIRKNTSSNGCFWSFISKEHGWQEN
# ASSAY_COMMENT: yeast scFv FACS
Rule for this label: YES means Kd is less than 0.7 nM; NO means Kd is at least 0.7 nM.

| BINDER | GROUP |
| --- | --- |
| 28H2 scFv (scFv, V domains shown) VH: QVQLQESGPGLVKPSQTVSLTCTVAGYSITNGNHWWNWIRQVSGSKLEWIGYITSSGSTDSNPSLKSRISITRDTSKNQLFLQLNSVTTEDIATYYCARSSNYFFHVLDYWGQGTSVTVSS VL: DIVLTQTPAIMSASPGEKVTMTCSASSSVSYMHWFQQKPGTSPKLWIYSTSNLASGVPARFSGSGSGTSYSLTISRMEAEDAATYYCQQRSSYPPTFGGGTRLEIK | NO |
| 28H4 scFv (scFv, V domains shown) VH: EVQLQQSGAELAKPGASVKLSCKASGYTFTSYWMHWVKQGPGQGLEWIGAIYPGNSDTGYNQKFKGKAKLTAVTSASTAYMELSSLTNEDSAVYYCTRHGYYIYALDYWGQGTSVTVSS VL: DIVLTQSPAIMSASPGEKVTMTCSASSSVSYMYWYQQKPGSSPKPWIYRTSNLASGVPVRFSGSGSGTSYSLTISSMEAEDAATYYCQQYHNFPPTFGGGTKLEIK | NO |

q: # TODO verify Kd < 0.7 nM strictly for this binder: 41B7 scFv (scFv, V domains shown) VH: EVQLVQSGGNLVQPGGSLRLSCAATGPIGSHWMTWVRQAPGQGLEWVANINLDGTEKFYVDSVKGRFTVSRDNRKSSVFLQMNNLRVDDTAVYYCARLQWGGYDGWLSPWGQGTLVTVSS VL: DIVMTQSPPSLSASVGDRVSLTCRASEYIGTSLNWYQQKPGTAPKLLIYAASALHSGVPSRFSGSGSGTDFTLTISGLQPEDFATYYCQQANDLPLTFGGGTKLEIK
a: NO

q: Moving on to the next binder: 41E2 scFv (scFv, V domains shown) VH: EVQLVPSGGNLVQPGGSLRLSCAATGPIGSHWMTWVRQAPGQGLEWVANINLDGTEKFYVDSVKGRFTVSRDNRKSSVFLQMNNLRVDDTAVYYCARLQWGGYNGWLSPWGQGTLVTVSS VL: DIVMIQSPPSLSASVGDRVSLTCRASEYIGTSLNWYQQKPGKAPKLLIYAASALHSGVPSRFSGSGSGTDFTLTISGLQPEDFATYYCQQANDLPLTFGGGTKLEIK
a: YES

q: Try this binder next: 39D5.1 scFv (scFv, V domains shown) VH: EVQLVQSGGNLVQPGGSLRLSCAATGPIGSHWMTWVRQAPGQGLEWVASINLDGTEKFYVDSVKGRFTVSRDNRKSSVFLQMNNLRVDDTAVYYCARLQWGGYNGWLSPWGQGTLVTVSS VL: DIVMTQSPPSLSASVGDRVSLTCRASEYIGTSLNWYQQKPGKAPKLLIYAASALHSGVPSRFSGSGSGTDFTLTISGLQPEDFATYYCQQANDLPLTFGGGTKLEIK
a: NO

q: // query: 39D1.1 scFv (scFv, V domains shown) VH: EVQLVQSGGNLVQPGGSLRLSCAATGPIGSHWMTWVRQAPGQGLEWVANINLDGTEKFYVDSVKGRFTVSRDNRKSSVFLQMNNLRVDDTAVYYCARLQWGGYDGWLSPWGQGTLVTVSS VL: DIVMTQSPPSLSASVGDRVSLTCRASEYIGTSLNWYQQKPGKAPKLLIYAASALHSGVPSRFSGSGSGTDFTLTISGLQPEDFATYYCQQANDLPLTFGGGTKLEIK
a: NO

q: How about this binder: 28C11 scFv (scFv, V domains shown) VH: EVQLQESGGDLVKPGGSLKLSCAASGFTFSYYGMSWVRQTPDKRLEWVATISSGGTYTYYPDSVKGRFTISRDNAKNTLYLQMSSLSSEDTAMYYCARRRSYDSVYWYFDVWGAGTSVTVSS VL: DIVLTQSPAITAASLGQKVTITCSASSSGSYIHWYQQKSGTSPKLLIYRTSNLASGVPSRFSGSGSGTFYSLTISSVEAEDAADYFCHQWSSYPTFGGGTKLEIK
a: YES

Data credit: patent US20220089784A1
